test: qHTS of small molecules that selectively kill Giardia lamblia: Hit Validation.;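 note: viability measured as ATP content by luminescence so killing lowers signal; trophozoites exposed to compounds for 48 h anaerobically at 37 °C; nearly all actives have a fitted effect of over 65% in size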; conditions: Giardia lamblia trophozoite viability, dose-response; series mostly up to 38.3 µM
Out of some 1,300 compounds screened, about 1,000 (77%) were called active. Not shown: some 7% with an inconclusive outcome. Calls come from the whole dose curve; as a rule, active = well fitted inhibition curve with a large enough effect; inconclusive = small, poorly fitted or top-dose-only effect; inactive = no such curve, though single readings can be large or run the other way. So high a share suggests a set chosen from earlier hits. Some of the results follow.
Labels: Yes (active), No (inactive)

- O=C(N/N=C/c1ccc([N+](=O)[O-])o1)c1cn(-c2ccccc2)nc1-c1ccc(Cl)cc1: Yes
- Cc1ccc(Nc2nc(=O)c3cc([N+](=O)[O-])ccc3s2)cc1: Yes
- Cc1cc(C(=O)N/N=C/c2ccc([N+](=O)[O-])s2)n[nH]1: Yes
- Cn1nc([N+](=O)[O-])nc1N1CCOCC1: Yes
- O=C(Nc1cccc2ncccc12)c1ccc([N+](=O)[O-])o1: Yes
- Cn1ccsc1=NC(=O)c1ccc([N+](=O)[O-])o1: Yes
- Cc1ccc(NCC(=O)N/N=C\c2ccc([N+](=O)[O-])o2)cc1: Yes
- CCn1nnc(NC(=O)c2ccc([N+](=O)[O-])o2)n1: Yes
- O=C(N/N=C/c1cc2c(cc1[N+](=O)[O-])OCO2)c1ccccn1: Yes
- CN1CCN(C(=O)/C=C/c2ccc([N+](=O)[O-])o2)CC1: Yes
- CN(C)c1nc(=Nc2cccc(Cl)c2)ss1: Yes
- CC(C)Oc1ccccc1C1Nc2ccccc2C(=O)N1c1ccc2c(c1)OCCO2 (stereo not given): Yes
- CN(C(=O)c1ccc(N2CCCCC2)c([N+](=O)[O-])c1)C1CCS(=O)(=O)C1 (stereo not given): Yes
- O=[N+]([O-])c1ccc(/C=N/n2c(CO)nc3ccccc32)s1: Yes
- O=[N+]([O-])c1cn(-c2nc(-c3ccco3)cc(C(F)(F)F)n2)cn1: Yes
- Cc1nc2ccccc2n1/N=C/c1ccc([N+](=O)[O-])s1: Yes
- CN(C)CCCN(C(=O)c1cc2cc([N+](=O)[O-])ccc2s1)c1nc2cc3c(cc2s1)OCCO3: Yes
- N=C1C(c2ccccc2)=C(O)CN1c1cccc(S(=O)(=O)N2CCOCC2)c1: No
- NC(=O)c1oc2ccccc2c1NC(=O)c1ccc([N+](=O)[O-])o1: Yes
- COc1cc(C2Nc3ccccc3C(=O)N2c2ccc3c(c2)OCCO3)ccc1OCC(C)C (stereo not given): Yes
- O=[N+]([O-])c1ccc(Oc2cccc(Br)c2)c2ccncc12: Yes
- O=C(Nc1cccc2ccccc12)C12CC3CC(C1)CC(n1cnc([N+](=O)[O-])n1)(C3)C2: Yes
- CCOCCOc1nc2c(c(=O)n(C)c(=O)n2C)n1Cc1ccc(C)cc1: No
- Cc1ccc(-c2csc(NC(=O)c3ccc([N+](=O)[O-])o3)n2)cc1: Yes
- CC(C)(C)c1cc(C(=O)N/N=C/c2ccncc2)n[nH]1: No
- O=[N+]([O-])c1cc(S(=O)(=O)Nc2cccc(Cl)c2)ccc1N/N=C/c1ccc(N2CCOCC2)cc1: Yes
- CN(C(=O)c1ccc(F)c(S(=O)(=O)N2CCOCC2)c1)C1CCCCC1: No
- Cc1ccc(C(CC(=O)O)NC(=O)c2ccc(S(=O)(=O)N3CC(C)OC(C)C3)cc2)cc1 (stereo not given): No
- O=C(CNc1cccc([N+](=O)[O-])c1)N/N=C/c1ccc([N+](=O)[O-])o1: Yes
- O=C(CNc1ccc2ccccc2c1)N/N=C/c1ccc([N+](=O)[O-])o1: Yes
- CC(C)(C)[C@H](N)C(=O)N[C@H]1CCC2C3CC=C4C[C@@H](O)CC[C@]4(C)C3CC[C@@]21C (stereo not given in full): Yes
- O=C(c1cccc(F)c1)N1CCN(c2ccc([N+](=O)[O-])c3cccnc23)CC1: Yes
- COCCNc1cc(NCCOC)c([N+](=O)[O-])cc1[N+](=O)[O-]: Yes
- COc1ccccc1C(=O)C1CCCN(C(=O)c2ccco2)C1 (stereo not given): No
- O=C1NC(=O)/C(=C\c2ccc(Oc3ccc([N+](=O)[O-])cn3)cc2)S1: Yes

Data origin, for the record: PubChem BioAssay AID588397
